assay: Cytotoxicity against human MRC5 cells assessed as decrease in cell viability after 7 days by MTT assay; type: toxicity, cell-based
measured_metric: IC50 at 7 days

molecule	measured_metric	value_reported
CCC(C)[C@H](NC(=O)[C@H](C(C)CC)N(C)C)C(=O)N[C@@H]1C(=O)N[C@@H](Cc2c[nH]cn2)C(=O)NCC(=O)c2ccc(cc2)O[C@H]1C(C)C (some centres undefined)	IC50 at 7 days	> 64 µM
CCC(C)[C@@H](C(=O)N[C@H](C(=O)N[C@@H]1C(=O)N[C@@H](Cc2c[nH]c3ccccc23)C(=O)NCC(=O)c2ccc(cc2)OC1(C)C)C(C)C)[N+](C)(C)[O-] (some centres undefined)	IC50 at 7 days	> 64 µM
CCC(C)[C@@H](C(=O)N[C@H](C(=O)N[C@@H]1C(=O)N[C@@H](Cc2c[nH]c3ccccc23)C(=O)NCC(O)c2ccc(cc2)OC1(C)C)C(C)C)N(C)C (some centres undefined)	IC50 at 7 days	> 64 µM
CCC(C)[C@@H](C(=O)N[C@H](C(=O)N[C@@H]1C(=O)N[C@@H](Cc2c[nH]c3ccccc23)C(=O)NCC(=O)c2ccc(cc2)OC1(C)C)C(C)C)N(C)C (some centres undefined)	IC50 at 7 days	51.1 µM
